Each entry below lists one item and its recorded Protonation constant lgK1 value.
- assay: Protonation constants by potentiometric titration with spectrophotometric detection
- Format: physicochemical
- experimental conditions: titration from pH 10; for trans-1 first of two protonation steps
- Procedure: The third one in this equilibrium system must be a complex between the previous two species. Detailed fitting studies by application of the PSEQUAD program confirmed the existence of a complex with a 1:1 (FeL^2+) composition. […] The apparent formation constant determined from this spectrum series and that regarding the titration with the ligand was lgK’FeL = 4.75 ± 0.10. […] The protonation and complex formation constants were determined similarly for the other three compounds. […]
Form rule: numeric answer, no unit written next to it.

Example entries begin here.
- compound: "O=c1cc(/C=C/c2ccsc2)occ1O [trans-6]"
  Protonation constant lgK1: 7.81
- compound: "O=c1cc(/C=C/c2ccccc2O)occ1O [trans-1]"
  Protonation constant lgK1: 8.9
- compound: "O=c1cc(/C=C\\c2ccc(Cl)cc2Cl)occ1O [cis-4]"
  Protonation constant lgK1: 7.99

Query: Return reported Protonation constant lgK1; argument: O=c1cc(/C=C\c2ccccc2C(F)(F)F)occ1O [cis-2]
Reply: 7.95

Taken from paper PMC9573353.
